The values you see were collected from ChEMBL document CHEMBL1145562.

# tested on: C-C chemokine receptor type 2 (Homo sapiens, UniProt P41597)
# Sequence (P41597 whole entry): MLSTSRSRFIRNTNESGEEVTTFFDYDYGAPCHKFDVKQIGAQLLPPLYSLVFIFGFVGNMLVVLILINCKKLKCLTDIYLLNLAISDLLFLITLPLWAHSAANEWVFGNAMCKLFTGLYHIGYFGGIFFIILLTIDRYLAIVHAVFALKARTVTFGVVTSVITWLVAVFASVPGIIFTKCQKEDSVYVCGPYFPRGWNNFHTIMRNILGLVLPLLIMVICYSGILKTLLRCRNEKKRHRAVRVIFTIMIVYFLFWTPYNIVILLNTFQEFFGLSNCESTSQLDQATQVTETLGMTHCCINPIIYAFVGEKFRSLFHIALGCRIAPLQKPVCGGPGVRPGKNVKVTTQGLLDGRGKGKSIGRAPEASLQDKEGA
# experiment description: Antagonist activity at CCR2 receptor expressed in THP1 cells assessed as inhibition of MCP-1-induced chemotaxis
readout type: IC50 (nM)
Please give a number only; it is taken to be in nM.

# IC50 (compound: O=C(/C=C/c1cc(F)c(F)c(F)c1)N1CCC([C@@H](CO)N2CCC(c3c[nH]c4ccccc34)CC2)CC1 ) is 3.5
